tested on: 755483-174-R-J1-PDC complex spheroid growth, percent test/control; assay: Anticancer human tumor 755483-174-R-J1-PDC patient-derived rhabdomyosarcoma cell line growth inhibition [Asc]; details: second compound 0.0949 µM; first compound 0.316 µM; active compounds read low;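 also: spheroids exposed to compounds for seven days before readout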
Threshold check on viability, T/C: strictly below 70% is 1.0; on or above 70% is 0.0.

Ask: viability, T/C under 70%? Item: C=C(F)C(=O)N1CCN(c2nc(OCC3CCCN3C)nc3c2CCN(c2cccc4cccc(Cl)c24)C3)CC1CC#N (stereo not drawn) + CCN1C(C(=O)NC23CCC(C(=O)O)(CC2)CC3)C(c2cccc(Cl)c2F)C2(C(=O)Nc3cc(Cl)ccc32)C12CCCCC2
Reply: 0.0

Ask: viability, T/C under 70%? Item: C#Cc1c(F)ccc2cc(O)cc(-c3ncc4c(N5CC6CCC(C5)N6)nc(OCC56CCCN5CC(F)C6)nc4c3F)c12 (stereo not drawn) + CCN1C(C(=O)NC23CCC(C(=O)O)(CC2)CC3)C(c2cccc(Cl)c2F)C2(C(=O)Nc3cc(Cl)ccc32)C12CCCCC2
Reply: 0.0
